- TEST SYSTEM: recombinant glucosyltransferase domain of C. difficile Toxin B/TcdB (Clostridioides difficile, UniProt P18177)
- Construct: 6-His (C); purchased R&D Systems 6246-GT
- Sequence (P18177 1-543): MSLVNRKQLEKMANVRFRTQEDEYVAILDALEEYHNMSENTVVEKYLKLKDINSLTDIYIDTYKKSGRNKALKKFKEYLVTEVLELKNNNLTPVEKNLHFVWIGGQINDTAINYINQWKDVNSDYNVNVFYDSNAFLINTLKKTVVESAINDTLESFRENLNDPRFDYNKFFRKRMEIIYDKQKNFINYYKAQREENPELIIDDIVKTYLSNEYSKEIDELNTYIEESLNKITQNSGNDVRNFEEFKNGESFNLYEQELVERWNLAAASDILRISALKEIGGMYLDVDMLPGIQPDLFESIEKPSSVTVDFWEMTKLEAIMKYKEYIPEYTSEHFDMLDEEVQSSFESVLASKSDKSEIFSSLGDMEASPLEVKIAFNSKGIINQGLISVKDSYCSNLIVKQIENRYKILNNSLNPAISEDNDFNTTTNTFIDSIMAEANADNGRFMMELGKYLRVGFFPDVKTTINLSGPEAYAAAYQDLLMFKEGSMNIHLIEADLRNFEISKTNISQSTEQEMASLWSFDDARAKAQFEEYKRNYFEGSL
- TEST DETAILS: biochemical
RESULT TYPE: IC50

>  <COMPOUND>
O=C(Nc1ccccn1)c1ccc(CN2C(=O)c3ccc(Cl)cc3NC(=O)[C@@H]2Cc2ccccn2)cc1 [Example 4aq]

>  <RESULT TYPE>
IC50

>  <RESULT VALUE>
< 0.1 µM

$$$$
>  <COMPOUND>
O=C1Nc2cc(Cl)ccc2C(=O)N(Cc2ccc(-n3cnc4cccnc4c3=O)cc2)[C@@H]1Cc1ccccn1 [Example 46a]

>  <RESULT TYPE>
IC50

>  <RESULT VALUE>
< 0.1 µM

$$$$
>  <COMPOUND>
Cn1ccnc1C(=O)Nc1ccc(CN2C(=O)c3ccc(Cl)cc3NC(=O)[C@H]2Cc2ccccn2)cc1 [Example 27i]

>  <RESULT TYPE>
IC50

>  <RESULT VALUE>
0.1 to 0.999 µM

$$$$
